All values here come from paper PMC5261807.

Recorded binding score for the following binders
# system.name: T1, Bdf1 bromodomain 1 (GST-tagged, WT) (Saccharomyces cerevisiae (strain ATCC …, UniProt P35817))
# T1 chain: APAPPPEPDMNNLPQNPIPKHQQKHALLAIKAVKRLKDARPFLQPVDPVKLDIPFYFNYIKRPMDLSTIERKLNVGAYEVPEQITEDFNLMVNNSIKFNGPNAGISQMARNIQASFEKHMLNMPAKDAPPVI
# assay.notes: histone peptide array probed with recombinant GST-bromodomain, signal normalised to myc peptide control
Non-standard residues stand in square brackets, D forms with d. Primed or numbered codes have the meaning given here. No end group written: not given here. Me2a″ = asymmetric dimethylarginine (Rme2a); Arg(Me2a) = CN(C)C(=N)NCCC[C@H](N)C(=O)O; Lys(Me3) = C[N+](C)(C)CCCC[C@H](N)C(=O)O; Lys(Me2) = CN(C)CCCC[C@H](N)C(=O)O; pS = N[C@@H](COP(=O)(O)O)C(=O)O; Lys(Me) = CNCCCC[C@H](N)C(=O)O; Me3″ = trimethyl lysine (Kme3)
Form: value (number only, do not type unit).

These solved cases illustrate the format of a correct answer.
{"binder": "PRKQLATKAAR[Lys(Me3)]SAPATGG", "binding score": 0}
{"binder": "[pS]GRGKQGGK(Ac)ARAKAKSRSS", "binding score": 0}
{"binder": "PRKQLATKAAR(Me2a″)K(Me3″)SAPATGG", "binding score": 0}
{"binder": "ART[Lys(Me2)]QTA[Arg(Me2a)][Lys(Me)]STGGKAPRKQ", "binding score": 0.000717}
{"binder": "[pS]GRGK(Ac)QGGK(Ac)ARAKAKSRSS", "binding score": 0.00663}

The reported binding score of the binder PDPAK(Ac)SAPAPKKGSKKAVT [H2B 1-19] was 0.00502

The reported binding score of the binder ARTKQTARKSTGGKAPRKQ (A Rme2s T Kme3 Q T A Rme2s Kac S T G G K A P R K Q) was 0.0104

The reported binding score of the binder A[Arg(Me2a)]T[Lys(Me3)]QTAR[Lys(Me2)]STGGKAPRKQ was 0
